# subjectOfTest: panel of 255 wild-type kinases (Homo sapiens, UniProt Q9UQB9)
# Sequence (Q9UQB9 whole entry): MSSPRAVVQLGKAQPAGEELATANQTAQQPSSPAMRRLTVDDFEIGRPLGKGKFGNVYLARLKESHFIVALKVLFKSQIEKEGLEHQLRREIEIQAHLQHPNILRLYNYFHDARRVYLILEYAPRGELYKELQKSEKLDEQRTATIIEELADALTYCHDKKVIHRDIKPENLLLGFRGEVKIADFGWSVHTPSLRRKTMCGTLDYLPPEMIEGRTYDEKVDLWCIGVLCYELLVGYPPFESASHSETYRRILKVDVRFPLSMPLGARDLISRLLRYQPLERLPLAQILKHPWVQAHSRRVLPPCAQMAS
# protocolNotes: Kinase panel profiling at 1 µmol/L (MSA or IMAP), percentage inhibition
# Assay type: biochemical
# measurementSetup: AurC kinase assay; 1 µmol/L single concentration; read-out: %-inhibition AurC
Decision: inhibition at 1 µM >= 20% yields y, all other cases yield n.

Consider the worked cases shown below.
compound: COC(=O)N[C@@H](C)CNc1nccc(-c2cn(C(C)C)nc2-c2cc(Cl)cc(NS(C)(=O)=O)c2F)n1 [encorafenib]
subjectOfTest: panel of 255 wild-type kinases (Homo sapiens, UniProt Q9UQB9)
class: n
//
compound: C[C@H]1Oc2cc(cnc2N)-c2c(nn(C)c2C#N)CN(C)C(=O)c2ccc(F)cc21 [lorlatinib]
subjectOfTest: panel of 255 wild-type kinases (Homo sapiens, UniProt Q9UQB9)
class: n
//
compound: Cc1nc(NC(=O)N2CCC[C@H]2C(N)=O)sc1-c1ccnc(C(C)(C)C(F)(F)F)c1 [alpelisib]
subjectOfTest: panel of 255 wild-type kinases (Homo sapiens, UniProt Q9UQB9)
class: n
//
compound: Cc1cc(Nc2ncnc3ccc(NC4=NC(C)(C)CO4)cc23)ccc1Oc1ccn2ncnc2c1 [tucatinib]
subjectOfTest: panel of 255 wild-type kinases (Homo sapiens, UniProt Q9UQB9)
class: n
//
compound: FC(F)(F)c1ccc(CNc2ccc(Cc3c[nH]c4ncc(Cl)cc34)cn2)cn1 [pexidartinib]
subjectOfTest: panel of 255 wild-type kinases (Homo sapiens, UniProt Q9UQB9)
class: y

Does COc1ccc(CN2C3CC2CN(c2ccc(-c4cc(OCC(C)(C)O)cn5ncc(C#N)c45)cn2)C3)cn1 [selpercatinib] have a reported inhibition at 1 µM of at least 20%?
y

Please tell me: is the compound COc1cc2ncnc(Nc3ccc(F)c(Cl)c3)c2cc1NC(=O)/C=C/CN1CCCCC1 [dacomitinib] at or over 20% in terms of inhibition at 1 µM?
n

Test whether the compound CCc1nc(C(N)=O)c(Nc2ccc(N3CCC(N4CCN(C)CC4)CC3)c(OC)c2)nc1NC1CCOCC1 [gilteritinib] records inhibition at 1 µM of 20% or higher.
y

* * *

# subjectOfTest: panel of 255 wild-type kinases (Homo sapiens, UniProt P36888)
# Sequence (P36888 27-993): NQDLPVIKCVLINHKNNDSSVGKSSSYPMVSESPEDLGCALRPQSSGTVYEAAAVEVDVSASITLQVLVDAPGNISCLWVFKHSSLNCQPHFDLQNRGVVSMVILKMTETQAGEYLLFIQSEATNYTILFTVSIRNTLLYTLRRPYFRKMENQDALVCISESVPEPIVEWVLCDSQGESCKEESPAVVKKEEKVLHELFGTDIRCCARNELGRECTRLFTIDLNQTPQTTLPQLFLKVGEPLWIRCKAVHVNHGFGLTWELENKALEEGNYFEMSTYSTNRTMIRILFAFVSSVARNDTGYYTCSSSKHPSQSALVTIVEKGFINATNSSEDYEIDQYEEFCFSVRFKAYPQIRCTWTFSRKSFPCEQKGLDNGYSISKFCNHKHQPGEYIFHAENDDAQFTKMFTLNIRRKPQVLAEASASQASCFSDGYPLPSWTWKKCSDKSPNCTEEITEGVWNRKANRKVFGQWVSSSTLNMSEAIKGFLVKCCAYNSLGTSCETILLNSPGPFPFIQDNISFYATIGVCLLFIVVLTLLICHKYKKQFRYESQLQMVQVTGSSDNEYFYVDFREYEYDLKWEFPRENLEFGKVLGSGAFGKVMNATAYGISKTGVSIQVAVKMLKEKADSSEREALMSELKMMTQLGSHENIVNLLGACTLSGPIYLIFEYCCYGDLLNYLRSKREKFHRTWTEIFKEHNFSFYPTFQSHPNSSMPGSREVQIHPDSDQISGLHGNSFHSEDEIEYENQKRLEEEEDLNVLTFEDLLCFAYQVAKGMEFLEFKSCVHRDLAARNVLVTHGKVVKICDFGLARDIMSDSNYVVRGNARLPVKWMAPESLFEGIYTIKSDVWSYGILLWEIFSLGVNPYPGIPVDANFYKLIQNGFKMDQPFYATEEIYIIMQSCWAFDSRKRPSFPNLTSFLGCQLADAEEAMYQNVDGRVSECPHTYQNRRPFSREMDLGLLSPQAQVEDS
# protocolNotes: Kinase panel profiling at 1 µmol/L (MSA or IMAP), percentage inhibition
# Format: biochemical
# measurementSetup: kinase FLT3; 1 µmol/L single concentration; read-out: %-inhibition at 1 µmol/L, FLT3
observationType: inhibition at 1 µM

See these solved cases before continuing.
structureString: C[C@H]1Oc2cc(cnc2N)-c2c(nn(C)c2C#N)CN(C)C(=O)c2ccc(F)cc21
inhibition at 1 µM: 13%

structureString: CO[C@]1(C(=O)N[C@@H](C)c2ccc(-n3cc(F)cn3)nc2)CC[C@H](c2nc(C)cc(Nc3cc(C)[nH]n3)n2)CC1
inhibition at 1 µM: 101%

structureString: COc1cc2ncnc(Nc3ccc(F)c(Cl)c3)c2cc1NC(=O)/C=C/CN1CCCCC1
inhibition at 1 µM: 56%

structureString: O=C(Nc1cnn2ccc(N3CCC[C@@H]3c3cc(F)ccc3F)nc12)N1CC[C@H](O)C1
inhibition at 1 µM: 6%

structureString: COc1ccc(CN2C3CC2CN(c2ccc(-c4cc(OCC(C)(C)O)cn5ncc(C#N)c45)cn2)C3)cn1
inhibition at 1 µM: 99%

Look at this compound and give its reported inhibition at 1 µM. Cc1cc(Nc2ncnc3ccc(NC4=NC(C)(C)CO4)cc23)ccc1Oc1ccn2ncnc2c1
48%

Entry Cn1cnc2c(F)c(Nc3ccc(Br)cc3Cl)c(C(=O)NOCCO)cc21 : reported inhibition at 1 µM = ?
52%

Consider the compound shown here: CCN1C(=O)N(c2c(F)c(OC)cc(OC)c2F)Cc2cnc3[nH]c(CN4CCOCC4)cc3c21 What is its recorded inhibition at 1 µM?
8%

What inhibition at 1 µM value was documented for this compound, CCc1nc(C(N)=O)c(Nc2ccc(N3CCC(N4CCN(C)CC4)CC3)c(OC)c2)nc1NC1CCOCC1 ?
99%

Reported inhibition at 1 µM, compound Cn1cc(-c2cc3c(N4CCN(c5ncc([C@@](C)(N)c6ccc(F)cc6)cn5)CC4)ncnn3c2)cn1 : ____
100%

Recorded inhibition at 1 µM of FC(F)(F)c1ccc(CNc2ccc(Cc3c[nH]c4ncc(Cl)cc34)cn2)cn1 , please.
55%

Can you look up the measured inhibition at 1 µM of Cn1cnc2c(F)c(Nc3ccc(Br)cc3F)c(C(=O)NOCCO)cc21 for me?
12%

Please report the recorded inhibition at 1 µM for C[C@H](Nc1ncnc2nc[nH]c12)c1cc2cccc(Cl)c2c(=O)n1-c1ccccc1 .
10%

Look at this compound and give its reported inhibition at 1 µM. C=CC(=O)N1CCC([C@@H]2CCNc3c(C(N)=O)c(-c4ccc(Oc5ccccc5)cc4)nn32)CC1
22%

# get_value(readout='inhibition at 1 µM', item= Cc1nc(NC(=O)N2CCC[C@H]2C(N)=O)sc1-c1ccnc(C(C)(C)C(F)(F)F)c1 )
6%

Find the recorded inhibition at 1 µM belonging to COC(=O)N[C@@H](C)CNc1nccc(-c2cn(C(C)C)nc2-c2cc(Cl)cc(NS(C)(=O)=O)c2F)n1 and report it.
9%

Please report the recorded inhibition at 1 µM for CCn1c(=O)c(-c2cc(NC(=O)Nc3ccccc3)c(F)cc2Br)cc2cnc(NC)cc21 .
46%
